Run description: acute toxicity in rats
Type: in vivo
Condition context: rat, in vivo, po, intragastric, single administration, 12 days observation

# Molecule, LD50 at 288 h [mg/kg]
records = [
    ("CCCCc1oc2ccccc2c1C(=O)c1ccc(N(CCN(C)C)S(=O)(=O)c2ccc(C)cc2)cc1 [Compound 7]", 1600),
]

====

Run description: acute toxicity in mice
Type: in vivo
Condition context: mouse, in vivo, ip, intraperitoneal, single administration, 12 days observation
Protocol: Finally, acute toxicity tests were carried out on rats and mice with Compound No. 7 and on rats with Compounds Nos. 13 and 14, the animals being kept under observation for 12 days following one single administration.

# Molecule, LD50 at 288 h / mg/kg
rows = [
    ("CCCCc1oc2ccccc2c1C(=O)c1ccc(N(CCN(C)C)S(=O)(=O)c2ccc(C)cc2)cc1 [Compound 7]", 275),
]
